# Test system: kainate (KA) receptor ([^3 H]Kainate binding, washed synaptosomal membranes from the rat forebrain)
# experiment_description: [^3 H]-kainate displacement, EAA receptor binding
# run_parameters: 10 μM test compound, [^3 H]Kainate 5 nM, pH 7.4, 30 min
Please respond with reported KA % DSPL @ 10 μM for every item in the list.
Give bare numbers, in %.

Below, each entry is followed by its recorded KA % DSPL @ 10 μM result.
CCCc1nnc2cnc3cc(Cl)c(Cl)cc3n12 [Compound 5] | 3.9
CCCCc1nnc2c(=O)[nH]c3cc(Cl)c(Cl)cc3n12 [Compound 8] | 33.8
O=[N+]([O-])c1ccc2c(c1)ncc1nncn12 [Compound 16, 7-nitro-1,2,4-triazolo[4,3-a]quinoxaline] | 3.0
O=c1[nH]c2ccc(Br)cc2n2nnnc12 [Compound 21] | 30.8
Clc1cc2ncc3nnc(-c4ccccc4)n3c2cc1Cl [Compound 11] | 9.1

Lab note: each molecule below needs its KA % DSPL @ 10 μM filled in.
1. Cc1cc2c3ccccc3[nH]c(=O)n2n1 [Compound 34]
2. O=c1[nH]c2cc([N+](=O)[O-])c([N+](=O)[O-])cc2n2cnnc12 [Compound 18]

[0.9, 15.6]

Lab note: each molecule below needs its KA % DSPL @ 10 μM filled in.
1. O=c1[nH]c2cc(Cl)ccc2c2ccnn12 [Compound 31]
2. O=c1[nH]c2cc([N+](=O)[O-])ccc2n2cnnc12 [Compound 17]
3. [N-]=[N+]=Nc1cc2c(cc1F)ncc1nnnn12 [Compound 26, 7-fluoro-8-azidotetrazoloquinoxaline]
4. CCc1nnc2cnc3cc(Cl)c(Cl)cc3n12 [Compound 3]
5. Cc1nnc2cnc3cc(Cl)c(Cl)cc3n12 [Compound 1]
6. Brc1ccc2ncc3nncn3c2c1 [Compound 15, 8-bromo-1,2,4-triazolo[4,3-a]quinoxaline]

[11.5, 34.7, 5.5, 12.0, 16.8, -4.3]

Lab note: each molecule below needs its KA % DSPL @ 10 μM filled in.
1. O=[N+]([O-])c1ccc2c(c1)ncc1nnnn12 [Compound 23, 7-nitrotetrazolo[1,5-a]quinoxaline]
2. O=c1[nH]c2ccc(Br)cc2c2ccnn12 [Compound 28]
3. O=c1[nH]c2ccc(Cl)cc2c2ccnn12 [Compound 29]
4. O=c1[nH]c2ccc([N+](=O)[O-])cc2n2nnnc12 [Compound 22]

-3.8
2.6
0.3
0.5
